Tested on: A498 renal
Test: NCI-60 one-dose screen, 48 h
Settings: 10 µM
Compounds without any hit were thinned out: in the full panel of roughly 83,000, 20% have a hit. Activity calls are given as the source filed them. How the source made its calls: active means growth percent below 10; inactive means the rest.
Outcome codes: 1 = active, 0 = inactive

c1ccc(CC(NCCNC(Cc2ccccc2)c2ccccc2)c2ccccc2)cc1 (configuration not stated) | 0
CCCCCc1cc[n+](CC(=O)c2ccc(Cl)cc2)cc1 | 0
CCCCC(=O)N(c1ccc(Nc2c3ccccc3nc3cc([N+](=O)[O-])ccc23)cc1)S(C)(=O)=O | 0
COc1ccc(/C=C2\SC(=S)N(CCCN3CCOCC3)C2=O)c(OC)c1 | 0
O=C(Nc1ccc(OS(=O)(=O)Cc2ccccc2)cc1)C12CC3CC(CC(C3)C1)C2 | 0
COc1cc(OC)cc(-c2ccc(-c3ccc(C(=N)N)cn3)o2)c1 | 0
Nc1c(C(=O)NC2CCCCC2)sc2nc3c(cc12)C(=O)CCC3 | 0
CCCCCN(CCCCC)C(C)C(O)c1ccc2cc(Cl)c3ccccc3c2c1 (configuration not stated) | 0
O=C1/C(=C/c2ccc(O)cc2)Cc2ccc(Cl)cc21 | 0
COc1ccc(-c2csc(NC(=O)CO[N+](=O)[O-])n2)cc1 | 0
CC(C)OP(=O)(O)c1ncc(-c2ccc(C(F)(F)F)cc2)c(NC2CCCCCC2)n1 | 0
O=[N+]([O-])c1ccc(S(=O)(=O)OCCCCOS(=O)(=O)c2ccc([N+](=O)[O-])cc2)cc1 | 0
COc1cc(CSc2nc3ccc(C)cc3c(=O)n2-c2ccccc2)cc(OC)c1OC | 0
Nc1ccc(C2=CC(c3ccc(Cl)cc3)N3C=CSC3=N2)cc1 (configuration not stated) | 1
O=C(/C=C/c1ccc(Cl)cc1)c1ccc(Br)cc1 | 1
Cc1nc(N)sc1Sc1nc2ccc(Cl)cc2c(=O)n1-c1ccc(Oc2ccccc2)cc1 | 0
O=c1c2cccc3c(Nc4ccc(Br)cn4)ccc(c32)c2nc3ccccc3n12 | 0
N#Cc1cnc2ccc(NCc3cnc[nH]3)cc2c1Nc1ccc(F)c(Cl)c1 | 0
NC1CCC(Nc2nc(NCc3ccc(-c4ccco4)nc3)c3ncn(C4CCCC4)c3n2)CC1 (configuration not stated) | 1
CCOc1nc(-c2ccccc2)cc2c(O)c(C(=O)NC(C)C)[nH]c(=O)c12 | 0
COc1cc(-c2nc3ccc(C)cc3[nH]2)ccc1OCc1nnc(-c2ccc(CC(C)C)cc2)o1 | 0
COCCOC(=O)NC(=O)Nc1ccc(/C(=N/O)c2ccc(Cl)cc2)cc1 | 1
